Each entry below carries its reported IC50.
Biological target: human PHD2 (PHD2181-417) (Homo sapiens)
Construct: Smt (SUMO) tag (cleaved yes); made in house; host or cells: E. coli BL21 (pBAD vector)
Sequence (Q9GZT9 181-417): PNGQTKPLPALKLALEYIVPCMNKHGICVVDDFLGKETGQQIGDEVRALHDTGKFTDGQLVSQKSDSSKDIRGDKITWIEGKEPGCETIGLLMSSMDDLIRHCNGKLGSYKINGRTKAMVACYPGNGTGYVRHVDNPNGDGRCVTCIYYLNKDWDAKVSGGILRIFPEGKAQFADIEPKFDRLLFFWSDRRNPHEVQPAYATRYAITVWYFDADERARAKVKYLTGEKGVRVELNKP
Experiment: PHD enzymatic assay ([14C]-succinic acid production)
Assay type: biochemical
Settings: PHD2181-417, HIF-1α peptide 10 μM, average of results; read-out: Enzyme pIC50 (converted)
parameter-measured: IC50 (nM)

O=C(O)c1cnn(-c2nc3cc(O)ccc3c(=O)[nH]2)c1	50.1
O=C(O)c1cnn(-c2nc3cc(F)c(Oc4cccc(C(F)(F)F)c4)cc3c(=O)[nH]2)c1	20
Cc1cc2nc(-n3cc(C(=O)O)cn3)[nH]c(=O)c2cc1Oc1c(C)cccc1C	20
Cc1cccc(C)c1CNc1ccc2nc(-n3cc(C(=O)O)cn3)[nH]c(=O)c2c1	31.6
O=C(O)c1cnn(-c2nc3ccc(N4CCCCC4)cc3c(=O)[nH]2)c1	39.8
C=C(Cl)c1ccc2nc(-n3cc(C(=O)O)cn3)[nH]c(=O)c2c1	25.1
O=C(O)c1cnn(-c2nc3c4c(ccc3c(=O)[nH]2)CCC4)c1	501
O=C(O)c1cnn(-c2nc3cc(Cl)c(Cl)cc3c(=O)[nH]2)c1	25.1
O=C(O)c1cnn(-c2nc3cc4c(cc3c(=O)[nH]2)CCC4)c1	35.5
O=C(O)c1cnn(-c2nc3ccc(NCc4cccc(Cl)c4)cc3c(=O)[nH]2)c1	25.1
O=C(O)c1cnn(-c2nc3ccc(OC(F)(F)F)cc3c(=O)[nH]2)c1	15.8
O=C(O)c1cnn(-c2nc3ccc(Oc4cc(F)cc(C(F)(F)F)c4)cc3c(=O)[nH]2)c1	20
Cc1ccc2nc(-n3cc(C(=O)O)cn3)[nH]c(=O)c2c1	39.8
COc1cc2nc(-n3cc(C(=O)O)cn3)[nH]c(=O)c2cc1OC	200
O=C(O)c1cnn(-c2nc3cc(Cl)c(-c4ccccc4)cc3c(=O)[nH]2)c1	20
O=C(O)c1cnn(-c2nc3cc(Cl)ccc3c(=O)[nH]2)c1	50.1
CSc1ccc2nc(-n3cc(C(=O)O)cn3)[nH]c(=O)c2c1	31.6
O=C(O)c1cnn(-c2nc3ccccc3c(=O)[nH]2)c1	63.1
O=C(O)c1cnn(-c2nc3cc(F)cc(F)c3c(=O)[nH]2)c1	63.1
COc1cc2nc(-n3cc(C(=O)O)cn3)[nH]c(=O)c2cc1Oc1c(C)cccc1C	20
CCOc1ccc2c(=O)[nH]c(-n3cc(C(=O)O)cn3)nc2c1	158
O=C(O)c1cnn(-c2nc3cc4c(cc3c(=O)[nH]2)OCCO4)c1	35.5
COc1cc2nc(-n3cc(C(=O)O)cn3)[nH]c(=O)c2cc1Oc1ccccc1	39.8
COc1cc(Oc2ccc3nc(-n4cc(C(=O)O)cn4)[nH]c(=O)c3c2)cc(OC)c1OC	20
CCC(C)c1ccc2nc(-n3cc(C(=O)O)cn3)[nH]c(=O)c2c1 (stereo not shown)	20
O=C(O)c1cnn(-c2nc3cc(Sc4ccc(Cl)cc4)ccc3c(=O)[nH]2)c1	39.8
COc1cccc(C2CCCN(c3cc4c(=O)[nH]c(-n5cc(C(=O)O)cn5)nc4cc3Cl)C2)c1 (racemic)	25.1
O=C(O)c1cnn(-c2nc3c(F)cccc3c(=O)[nH]2)c1	79.4
